Kd: recorded values
molecular target: CCL13_HUMAN (Homo sapiens, UniProt Q99616); test: Biolayer interferometry (BLI) binding
Sequence (Q99616 17-98): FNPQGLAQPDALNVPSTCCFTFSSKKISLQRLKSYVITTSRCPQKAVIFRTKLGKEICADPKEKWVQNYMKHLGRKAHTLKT
Lab note: write values as number then unit, every time.

{"Molecule": "P985_AMBPA: tick CKBP, Amblyomma parvum (protein, listed as Amblyomma parvum) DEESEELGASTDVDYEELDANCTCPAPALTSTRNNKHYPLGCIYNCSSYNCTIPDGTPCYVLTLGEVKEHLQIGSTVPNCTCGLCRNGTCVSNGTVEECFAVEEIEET", "Meas value": "89 nM"}

Query molecule follows.
Memo: P1182_AMBMA: tick CKBP, Amblyomma maculatum (protein, listed as Amblyomma maculatum) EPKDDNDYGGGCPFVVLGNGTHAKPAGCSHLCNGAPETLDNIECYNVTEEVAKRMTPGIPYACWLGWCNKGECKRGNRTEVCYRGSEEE , reported Kd: 56 nM
